The reported measurements were obtained from the supplement of paper PMC9233669.

Measured self-aminoacylation of individual entries
# Tested on: biotinyl-Ile-oxazolone
# assay_info: self-aminoacylation, catalytic enhancement (BIO) (fold over background); higher = more active; k-Seq, kA / k0A0; sequences stand for … in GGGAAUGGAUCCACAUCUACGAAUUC…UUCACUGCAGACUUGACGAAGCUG
Fewer inactive variants are shown than the library holds.

monomer_sequence	self-aminoacylation
AUUCACCUAGGUCAACGGUUG [Fam2.2 aminoacylation ribozyme variant]	0.852
AUUACCCUGGUCUCCGAGUGA [Fam2.1 aminoacylation ribozyme variant]	3.95
AUAACGCUGGUCAUCGAGUGA [Fam2.1 aminoacylation ribozyme variant]	3.06
AUUACCCUGUUCAUCGAGUGA [Fam2.1 aminoacylation ribozyme variant]	2.97
AUUCACCUAAGUCAGCGGGUG [Fam2.2 aminoacylation ribozyme variant]	3.01

###

# System: biotinyl-Val-oxazolone
# assay_info: self-aminoacylation, catalytic enhancement (BVO) (fold over background); higher = more active; k-Seq, kA / k0A0; sequences stand for … in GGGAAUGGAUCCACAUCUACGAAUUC…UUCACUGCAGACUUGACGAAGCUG
Fewer inactive variants are shown than the library holds.
Measured self-aminoacylation of individual entries

monomer_sequence	self-aminoacylation
CCAAACUUCAAGCAAUUGGUC [Fam1B.1 aminoacylation ribozyme variant]	0.828
CCACACUUCAAGCAAUGGGUU [Fam1B.1 aminoacylation ribozyme variant]	1.71
AUUACCCUGGCCAUCCAGUGA [Fam2.1 aminoacylation ribozyme variant]	4.01
AAGUCUGCUAAUAGUCGCUAG [Fam3.1 aminoacylation ribozyme variant]	0.983
ACGUUUGUUAAUAGUCGCAAG [Fam3.1 aminoacylation ribozyme variant]	1.69
AUUCACCCAGGUCAUUGGGUG [Fam2.2 aminoacylation ribozyme variant]	2.52
AAGUUUGGUAAUAGUCGCCAG [Fam3.1 aminoacylation ribozyme variant]	1.32
AUUCACCUAGGUCAUCGGGCA [Fam2.2 aminoacylation ribozyme variant]	3.24
GUUACCCUAGUCAUCGAGUGA [Fam2.1 aminoacylation ribozyme variant]	3.33
CUACUUCAAUCAAUCGGUCGG [Fam1A.1 aminoacylation ribozyme variant]	1.04
AUUCAGCUAGGUCAUCGGGCG [Fam2.2 aminoacylation ribozyme variant]	2.79
AUUCUACUAGGUCAUCGGGUG [Fam2.2 aminoacylation ribozyme variant]	3.87
AUUCACCUAGUUCAUUGGGUG [Fam2.2 aminoacylation ribozyme variant]	1.62
AUUCACCGCGGUCAUCGGGUG [Fam2.2 aminoacylation ribozyme variant]	5.04
CUACUUCAAACUAUCGGUAUG [Fam1A.1 aminoacylation ribozyme variant]	0.813
AAGUUUGAUAAUAGUCGCAAC [Fam3.1 aminoacylation ribozyme variant]	0.809
AAUACCCUGGUGAUCGAGUGA [Fam2.1 aminoacylation ribozyme variant]	3.02
AAGUCUUCUAAUAGUCGCAAG [Fam3.1 aminoacylation ribozyme variant]	1.52
AAGUUUGCUAAUAGUCGCAUU [Fam3.1 aminoacylation ribozyme variant]	1.22
AUUACACUGGUCAUCGGGUGA [Fam2.1 aminoacylation ribozyme variant]	5.51
ACUCACCUAGGCCAUCGGGUG [Fam2.2 aminoacylation ribozyme variant]	6.46
AUUCACCUUGGUCAUCGGGUA [Fam2.2 aminoacylation ribozyme variant]	2.98
AUUACCCUGGUCAUGGUGUGA [Fam2.1 aminoacylation ribozyme variant]	1.18
AUGACCCUGGUCAUCGAGUUA [Fam2.1 aminoacylation ribozyme variant]	2.44
AGUACCCUGGUCAUUGAGUGA [Fam2.1 aminoacylation ribozyme variant]	3.39
AUUAACCUGGUCAUAGAGUGA [Fam2.1 aminoacylation ribozyme variant]	2.55
AUUACCCUGUUCUUCGAGUGA [Fam2.1 aminoacylation ribozyme variant]	3.41
AUUACGCUGGUCAUCGAGAGA [Fam2.1 aminoacylation ribozyme variant]	1.73
AUUACCAUGGUCAUCGAGCGA [Fam2.1 aminoacylation ribozyme variant]	1.79
AUUACUCUGGUCAUCGAAUGA [Fam2.1 aminoacylation ribozyme variant]	1.09
AAAUUUGCUAAUAGUCGCACG [Fam3.1 aminoacylation ribozyme variant]	1.72
CUACUUCAAACAAUGGGCCUG [Fam1A.1 aminoacylation ribozyme variant]	1.16
AUUCAACUAGGUCAUCGAGUG [Fam2.2 aminoacylation ribozyme variant]	1.45

###

Measured self-aminoacylation of individual entries
# Tested on: biotinyl-Val-oxazolone
# assay_info: self-aminoacylation, catalytic enhancement (BVO) (fold over background); higher = more active; k-Seq, kA / k0A0; sequences stand for … in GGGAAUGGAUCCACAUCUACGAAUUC…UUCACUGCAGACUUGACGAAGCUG
This sample holds only a part of the variants without activity.
measured_metric: self-aminoacylation

monomer_sequence	measured_metric	reported_measurement
CCACUUCAAACAAUCGGUUUG [Fam1A.1 aminoacylation ribozyme variant]	self-aminoacylation	1.83
AAGUUAGCUAAUAGUCGCAAG [Fam3.1 aminoacylation ribozyme variant]	self-aminoacylation	1.49
AAUACACUGGUCAUCGAGUGA [Fam2.1 aminoacylation ribozyme variant]	self-aminoacylation	3.4
CCACACUGCAAGCAAUCGCUC [Fam1B.1 aminoacylation ribozyme variant]	self-aminoacylation	2.35
GAGUAUGCUAAUAGUCGCAAG [Fam3.1 aminoacylation ribozyme variant]	self-aminoacylation	1.61
AUUCGCCUAGGUCAUCGGGCG [Fam2.2 aminoacylation ribozyme variant]	self-aminoacylation	3.59
AGUCCCCUGGUCAUCGAGUGA [Fam2.1 aminoacylation ribozyme variant]	self-aminoacylation	4.13
CUUCUUCAAACAAGCGGUCUG [Fam1A.1 aminoacylation ribozyme variant]	self-aminoacylation	0.958
AUUACCCUAGUAAUCGAGUGA [Fam2.1 aminoacylation ribozyme variant]	self-aminoacylation	3.18
AAGUUCACUAAUAGUCGCAAG [Fam3.1 aminoacylation ribozyme variant]	self-aminoacylation	1.86
AUUACCCUCGUCCUCGAGUGA [Fam2.1 aminoacylation ribozyme variant]	self-aminoacylation	2.4
CUACUUCAAAGGAUCGGUCUG [Fam1A.1 aminoacylation ribozyme variant]	self-aminoacylation	0.902
AUUACCCAGGUCAUUGAGUGA [Fam2.1 aminoacylation ribozyme variant]	self-aminoacylation	4.36
AUUCACCUAGGUCAUCAGGGG [Fam2.2 aminoacylation ribozyme variant]	self-aminoacylation	1.22

###

# Tested on: biotinyl-Met-oxazolone
# assay_info: self-aminoacylation, catalytic enhancement (BMO) (fold over background); higher = more active; k-Seq, kA / k0A0; sequences stand for … in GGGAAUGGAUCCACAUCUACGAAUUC…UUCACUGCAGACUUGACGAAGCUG
Variants at the floor of the assay were thinned out.
Measured self-aminoacylation of individual entries

monomer_sequence	target_desc	self-aminoacylation
GUACUUCAAACCAUCGGUCUG [Fam1A.1 aminoacylation ribozyme variant]	biotinyl-Met-oxazolone	1.13
AUUAGCCUGGUCAUCGAAUGA [Fam2.1 aminoacylation ribozyme variant]	biotinyl-Met-oxazolone	1.43
AUGCCCCUGGUCAUCGAGUGA [Fam2.1 aminoacylation ribozyme variant]	biotinyl-Met-oxazolone	9.73
CUACUUAAUACAAUCGGUCUG [Fam1A.1 aminoacylation ribozyme variant]	biotinyl-Met-oxazolone	0.89
AUUAUCCUAGGUCAUCGGGUG [Fam2.2 aminoacylation ribozyme variant]	biotinyl-Met-oxazolone	9.84
AAGUAUGCUAAUAGUCGCAUG [Fam3.1 aminoacylation ribozyme variant]	biotinyl-Met-oxazolone	1.45
AAGUUCGCUAAUGGUCGCAAG [Fam3.1 aminoacylation ribozyme variant]	biotinyl-Met-oxazolone	1.33

###

# Test system: biotinyl-Trp-oxazolone
# assay_info: self-aminoacylation, catalytic enhancement (BWO) (fold over background); higher = more active; k-Seq, kA / k0A0; sequences stand for … in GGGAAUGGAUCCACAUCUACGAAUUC…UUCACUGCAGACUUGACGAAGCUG
Fewer inactive variants are shown than the library holds.
Could you please classify the records by self-aminoacylation using these ranges: low band: < 0.9; middle band: ≥ 0.9 and < 5; high band: ≥ 5

monomer_sequence	target_desc	cat
CCACACUUCGAGUAAUCGGUC [Fam1B.1 aminoacylation ribozyme variant]	biotinyl-Trp-oxazolone	low band
AUCACCCAGGUCAUCGAGUGA [Fam2.1 aminoacylation ribozyme variant]	biotinyl-Trp-oxazolone	high band
AUUACUCUGGUCAUCGCGUGA [Fam2.1 aminoacylation ribozyme variant]	biotinyl-Trp-oxazolone	high band
CCAAACUUCAAGCAAUCGGGC [Fam1B.1 aminoacylation ribozyme variant]	biotinyl-Trp-oxazolone	middle band
UAACUUCAAACAAUCGGUCUG [Fam1A.1 aminoacylation ribozyme variant]	biotinyl-Trp-oxazolone	high band
CUACUUCAACCAAUCGGUGUG [Fam1A.1 aminoacylation ribozyme variant]	biotinyl-Trp-oxazolone	middle band
CCACACCUCAAGCAAUCGGUC [Fam1B.1 aminoacylation ribozyme variant]	biotinyl-Trp-oxazolone	middle band
CCACACUUAAAGCAUUCGGUC [Fam1B.1 aminoacylation ribozyme variant]	biotinyl-Trp-oxazolone	middle band
AUUACCCUGGUGAGCGAGUGA [Fam2.1 aminoacylation ribozyme variant]	biotinyl-Trp-oxazolone	middle band
CAGUUUGCUAAUAAUCGCAAG [Fam3.1 aminoacylation ribozyme variant]	biotinyl-Trp-oxazolone	middle band
CUACUUCGAACAAUCGGCCUG [Fam1A.1 aminoacylation ribozyme variant]	biotinyl-Trp-oxazolone	middle band
AAGUGUGCUAAUAGUCGCACG [Fam3.1 aminoacylation ribozyme variant]	biotinyl-Trp-oxazolone	middle band
CUACUUCAAAGGAUCGGUCUG [Fam1A.1 aminoacylation ribozyme variant]	biotinyl-Trp-oxazolone	low band
GUCACCCUGGUCAUCGAGUGA [Fam2.1 aminoacylation ribozyme variant]	biotinyl-Trp-oxazolone	high band
ACGCACUUCAAGCAAUCGGUC [Fam1B.1 aminoacylation ribozyme variant]	biotinyl-Trp-oxazolone	high band
CUACACUUCAAGCAAUGGGUC [Fam1B.1 aminoacylation ribozyme variant]	biotinyl-Trp-oxazolone	low band
AUUCACCUACGUCUUCGGGUG [Fam2.2 aminoacylation ribozyme variant]	biotinyl-Trp-oxazolone	middle band
CUACUUCAAACAAUCGAUUUG [Fam1A.1 aminoacylation ribozyme variant]	biotinyl-Trp-oxazolone	low band
CUACGUAAAACAAUCGGUCUG [Fam1A.1 aminoacylation ribozyme variant]	biotinyl-Trp-oxazolone	low band
AUUACCCUGGUCUUCGCGUGA [Fam2.1 aminoacylation ribozyme variant]	biotinyl-Trp-oxazolone	high band
UUUUACCUAGGUCAUCGGGUG [Fam2.2 aminoacylation ribozyme variant]	biotinyl-Trp-oxazolone	high band
